Recorded values, source paper PMC8426299.

Assay: Open-label single-dose (brigatinib 90 mg oral, fasting) plasma pharmacokinetic study, severe renal impairment vs matched healthy volunteers
Assay type: in vivo, human
Settings: human, plasma, po, 90 mg, healthy volunteers with normal renal function; single oral 90 mg; read-out: total brigatinib Cmax, geometric mean (CV%)
Description: This was an open-label, parallel-group study that enrolled patients with severe renal impairment and matched healthy volunteers with normal renal function. […] Plasma and urine samples were analyzed by Charles River Laboratories, Inc. (Worcester, MA, USA) by LC-MS/MS, as previously reported. Plasma samples were analyzed using a dual-range assay with a lower limit of quantitation of 0.100 ng/mL and an upper limit of 2500 ng/mL [11]. […]
readoutType: Cmax (ng/mL)
Your answer is read as ng/mL, so omit the unit and give the number.

Fill blank: measured Cmax of the molecule COc1cc(N2CCC(N3CCN(C)CC3)CC2)ccc1Nc1ncc(Cl)c(Nc2ccccc2P(C)(C)=O)n1 [brigatinib] is ____.
362
